Reference source: patent US5140014A

- Tested on: Escherichia Coli
- method_notes: in vitro antibacterial activity, agar dilution method (MIC)
- Format: cell-based
- applied_conditions: Escherichia coli, strain KNK 437; BHI agar, 20-24 hours; read-out: MIC
- Method: Compounds 1 to 8 were evaluated for antibacterial activity by the agar dilution method to determine the degree of in vitro susceptibility of aerobic microorganisms to antimicrobial agents. The test medium was Brain Heart Infusion (BHI) agar. The antibacterial agent was dissolved at a concentration of 2,000 ug/mL. Test plates were then prepared, usually 12 two-fold dilutions. After adding the sample to the plates, 10 mL of cooled BHI agar medium was added to each plate. […]
measured_metric: MIC (µg/mL)

compound: CCC1OC(=O)CC(O)C(C)C(OC2OC(C)CC(N(C)C)C2O)C(CC=O)CC(C)C(N(C)C)C=CC(C)=CC1COC(C)=O (stereo not drawn) [Example 5]
comparative_sign: =
value_observed: 12.5

compound: CCC1OC(=O)CC(O)C(C)C(OC2OC(C)CC(N(C)C)C2O)C(CC=O)CC(C)C(N(C)C)C=CC2(C)OC2C1C (stereo not drawn) [Example 1]
comparative_sign: =
value_observed: 6.2

compound: CCC1OC(=O)CC(O)C(C)C(OC2OC(C)CC(N(C)C)C2O)C(CC=O)CC(C)C(N(C)C)CCC(C)=CC1COC(C)=O (stereo not drawn) [Example 8]
comparative_sign: =
value_observed: 25

compound: CCC1OC(=O)CC(O)C(C)C(OC2OC(C)C(O)C(N(C)C)C2O)C(CC=O)CC(C)C(N(C)C)C=CC(C)=CC1COC(C)=O (stereo not drawn) [Example 4]
comparative_sign: =
value_observed: 50

compound: CC[C@H]1OC(=O)C[C@@H](O)[C@H](C)[C@@H](O[C@@H]2O[C@H](C)C[C@H](N(C)C)[C@H]2O)[C@@H](CC=O)C[C@@H](C)C(=O)/C=C/[C@]2(C)O[C@H]2[C@@H]1C [Rosaramicin, reference compound]
comparative_sign: =
value_observed: 25

compound: CCC1OC(=O)CC(O)C(C)C(OC2OC(C)C(O)C(N(C)C)C2O)C(CC=O)CC(C)C(N(C)C)CCC(C)=CC1COC(C)=O (stereo not drawn) [Example 6]
comparative_sign: >
value_observed: 100
